- method summary: HEK293 24hr Apoptosis Induction qHTS against the NCATS CANVASS Library (AID 1347359); further: 0% is about no effect
- particulars: HEK293 caspase-3/7 activation, Caspase-Glo luminescence; series mostly up to 46.1 µM
Results filed as inconclusive are left out. Activity calls are given as the source filed them. The call rests on the fitted dose curve; in most records, active means well fitted activation curve with a large enough effect; inconclusive means small, poorly fitted or top-dose-only effect; inactive means flat fitted curve, though single readings scatter.
quantity measured: outcome

Illustrative cases are given below, each with its answer.
{"columns": ["compound", "outcome"],
 "data": [
  ["COc1ccc([C@@H]2c3cc(OC)c(OC)cc3C(=O)C(C)C2C)cc1OC (stereo partly drawn)", "inactive"],
  ["C[C@H]1C[C@@H]([C@@H]2CC[C@]34O[C@H](CC[C@@]35C[C@H](C)C(=O)O5)CN24)OC1=O", "inactive"],
  ["Oc1ccc([C@H]2Oc3ccc(/C=C/c4cc(O)cc(O)c4)cc3C2c2cc(O)cc(O)c2)cc1 (stereo partly drawn)", "inactive"],
  ["CCCCCCCCCCCCCCCC(=O)OC/C=C(\\C)CCCC(C)CC(C)C(C)C (stereo not drawn)", "inactive"]
]}

Record request: outcome value, item COc1cc(/C=C/C(=O)O)ccc1O
inactive

Find the recorded outcome belonging to C1=C2CCCN[C@@H]2[C@@H]2CCN3CCCC[C@@H]3[C@H](C1)C2 and report it.
inactive

Look at this compound and give its reported outcome. CC(C)=CCC/C(C)=C/Cc1c(O)c(CC=C(C)C)c(O)c2c(=O)c3cc(O)ccc3oc12
inactive

Name the reported outcome value associated with the compound C[C@@]12C[C@@H](C[C@H]3C(=O)O[C@@H](c4ccoc4)[C@H](OC(=O)c4ccccc4)[C@@H]31)OC2=O
inactive

Given C[C@@H](CCC[C@]1(C)C(=O)C=C[C@]23C[C@H]4C[C@H](O[C@@]4(C)C2)C31)C(=O)N[C@@H](CO)C(=O)O (stereo partly drawn) , state its recorded outcome.
inactive

Report outcome for O=C(O)CC1OCc2c(O)cccc21 (stereo not drawn) please.
inactive

Sample COc1c(O)cc2oc(-c3ccccc3)cc(=O)c2c1O — what was its outcome?
inactive

So what's the measured outcome for this one? COc1cc(O)c2c3c(c(O)cc(C)c13)C(=O)OC2
inactive

What does the data say about its outcome? Entry: O=C1CC(c2cc(O)cc(O)c2)Oc2cc(O)ccc21 (stereo not drawn)
inactive

---

- test system: Muscarinic acetylcholine receptor M1 (Rattus norvegicus)
- method summary: qHTS Assay for Antagonists of Acetylcholine Muscarinic M1 Receptor: Measurement of IP-One Response (AID 944); further: nearly all actives have a fitted effect of over 75% in size
- particulars: CHO-M1 cells, IP-One HTRF, antagonist mode; series mostly up to 46.1 µM
Inconclusive results are not listed. Activity calls are given as the source filed them. Calls follow the shape of the dose curve; as a rule, active = well fitted inhibition curve with a large enough effect; inconclusive = small, poorly fitted or top-dose-only effect; inactive = no such curve, though single readings can be large or run the other way.
Returns: one label drawn from label 1 for active, label 0 for inactive

{"columns": ["molecular string", "category label"],
 "data": [
  ["CCn1ccnc1C[C@@H]1COc2ccccc2O1", "label 0"],
  ["CCCCOc1cc(C[C@@H]2CNC(=O)N2)ccc1OC", "label 0"],
  ["C1CCC(N=C(NC23CC4CC(CC(C4)C2)C3)N2CCOCC2)CC1", "label 1"],
  ["O=C(NCCNC[C@@H](O)COc1ccc(O)cc1)N1CCOCC1", "label 0"],
  ["Fc1cccc(/C=N\\N=C/c2cccc(F)c2)c1", "label 0"],
  ["C=C[C@H](N)CCC(=O)O", "label 0"]
]}

In the following, a different molecule is considered.
Just curious, what result did N[C@H](C(=O)O)[C@@H]1C[C@@H]1C(=O)O get here?
label 0

Source of measurements: PubChem BioAssay (NCATS)
